Value source: PubChem BioAssay (NCI)

test system: HL-60(TB) leukemia; assay: NCI tumour cell line growth inhibition, 48 h
recorded.endpoint: TGI

Use the examples below as a reference point.
molecule	experimental.result
N#CC(C#N)=CNCCN1CCN(C=C(C#N)C#N)CC1	> 100 µM
COc1ccc(-c2coc3cc(O)ccc3c2=O)cc1	> 100 µM
Cc1nn(C(=O)c2ccccc2O)c2c1C(c1ccc(O)cc1O)SC(N)=N2 (stereo not given)	> 10 µM

Working through the 2 molecules below one at a time, give TGI for each.
1. COC1/C=C/C=C(/C)Cc2cc(O)c(Cl)c(c2)N(C)C(=O)CC(OC(=O)C(C)C)C2(C)OC2C(C)C2CC1(O)NC(=O)O2 (stereo not given)
2. O=C1c2cc(I)ccc2N2CCN=C2N1Cc1ccccc1

Return:
1: > 100 µM; 2: > 100 µM

* * *

system: HCT-116 colon; experiment: NCI tumour cell line growth inhibition, 48 h
recorded.endpoint: TGI

Here is how some compounds turned out for TGI.
compound.structure.string	TGI
OCc1ccc(-c2csc(-c3ccc(CO)o3)c2)o1	> 100 µM
O=C(C=Nc1ccccc1C(=O)[O-])c1cccs1.O=C(C=Nc1ccccc1C(=O)[O-])c1cccs1.[Ni+2]	> 100 µM

Moving on to another compound below.
Enquiry: Form: Entry = "N/C=N/S(=O)(=O)c1ccc(NC(=O)COC(=O)c2cccc3c(=O)c4ccccc4[nH]c23)cc1" | System = HCT-116 colon | TGI = ____
Return: > 100 µM

* * *

Provide the reported TGI of each item.
system: CAKI-1 renal; test: NCI tumour cell line growth inhibition, 48 h

// worked examples, TGI included
compound.structure.string	TGI
CC1=NN(C(=O)Cc2ccccc2)C(=O)/C1=C\c1ccc([N+](=O)[O-])cc1	> 100 µM
CCc1cc(C)cc2[n+]1CC=C2	> 100 µM
Cc1nnc(N)nc1/C=C\c1ccc(Cl)cc1Cl	> 100 µM
Cc1ccccc1NC(=O)Cc1csc(N/N=C2\NC(=O)/C(=C/c3cccc([N+](=O)[O-])c3)S2)n1	35.7 µM
COc1cc2c(NCCCCCO)ncnc2c(OC)c1OC	> 100 µM

Now for a further molecule.
Enquiry: # query: TGI of entry "C/C(CCn1[nH]c(=O)ccc1=O)=N\NC(=O)C(N)=O"
Return: > 100 µM

* * *

test system: EKVX NSCLC; assay: NCI tumour cell line growth inhibition, 48 h
Could you please report measured TGI for the items listed next?

molecule	TGI
COc1ccc(-c2oc3ccccc3c(=O)c2O)cc1OC	> 100 µM

Would you be so kind as to report TGI for each listed record?
1. COc1ccc(-n2c(SC(CN3CCOCC3)CN3CCCC3=O)nc3ccccc3c2=O)cc1 (configuration not stated)
2. CC1(C)NC(=O)N(CCCCCCN2C(=O)NC(C)(C)C2=O)C1=O
3. CCn1c(-c2nonc2N)nc2c(C#CC(C)(C)O)ncc(OC3CCNCC3)c21
4. N#CC1C[C@@H]2CC3(CCC2CN1C(=O)c1ccccc1)OCCO3 (some centres not stated)

Return:
1. > 100 µM
2. > 100 µM
3. > 25 µM
4. > 100 µM

Record TGI for all entries; do not skip any.
1. O=C1C(=c2ccc(=C3C(=O)c4ccc([N+](=O)[O-])cc4[N+]3=O)cc2)N([O-])c2cc([N+](=O)[O-])ccc21
2. CC(C)(C)N/N=C(\C(=O)Nc1cccc(Cl)c1)C1C(=O)Nc2ccccc2S1=O (configuration not stated)
3. CCC(=O)Nc1cccc(N=Cc2ccc(OC(=O)/C=C\c3ccccc3)cc2)c1
4. C=C(C)[C@@H](O)[C@H](O)C[C@H](C)C1CC[C@]2(C)C1=CC[C@@H]1[C@@]3(C)CC[C@@H](OC(C)=O)C(C)(C)[C@@H]3C[C@@H](OC3OC(COC(C)=O)C(O)C(O)C3O)[C@]12C (some centres not stated)
5. O=C(CN1CCN(Cc2ccccc2Cl)CC1)NC1CC(=O)c2c(Br)sc(Br)c21 (configuration not stated)

Return:
1: > 100 µM; 2: > 100 µM; 3: > 75 µM; 4: 12.3 µM; 5: 42 µM

For each of the items listed, what is its TGI?
1. CC1=C/C=C/C(=O)O[C@@H]([C@H](C)[C@H](O)[C@@H](C)NC(=O)C(C)C)[C@H](C)/C=C/C(C)=C/[C@H]2C=CCC[C@@]2(C)\C=C\1
2. COc1cccc(C=O)c1C(=O)c1cc(O)ccc1O

Return:
["25.1 µM", "37.9 µM"]
